tested on: HEK-293T; experiment: Multiplex assay against HEK293T; format: toxicity, cell-based; settings: human, 24 h, 10 µM, compound concentration 10 uM, replicate 1
Could you please report measured Total Cell Count for the items listed next?
Reply briefly: the number, and no unit.

Looking for the measured Total Cell Count of CCN1CCN(c2ccc(Nc3cc(N(C)C(=O)Nc4c(Cl)c(OC)cc(OC)c4Cl)ncn3)cc2)CC1 [INFIGRATINIB] , can you help?
608

Need Total Cell Count of CCCS(=O)(=O)Nc1ccc(F)c(C(=O)c2c[nH]c3ncc(Cl)cc23)c1F [PLX-4720] , thanks.
975

// returns reported Total Cell Count for input `COc1ccc(S(=O)(=O)N(CCO)c2ccccc2CN(C)C/C=C/c2ccc(Cl)cc2)cc1.O=P(O)(O)O`
745

// returns reported Total Cell Count for input CN1C2CCC1CC(OC(c1ccc(F)cc1)c1ccc(F)cc1)C2.Cl (stereo unspecified)
292

For the molecule CCCn1c(=O)c2[nH]c(-c3cnn(Cc4cccc(C(F)(F)F)c4)c3)nc2n(CC)c1=O [GS 6201] , what Total Cell Count is on record?
314

Recorded Total Cell Count of COCC(=O)NC/C=C/c1ccc2ncnc(Nc3ccc(Oc4ccc(C)nc4)c(C)c3)c2c1 [CP-724714] , please.
336

Which Total Cell Count reading was recorded for the molecule `CCc1cccc(CC)c1NC(=O)c1nn(C)c2c1CCc1cnc(Nc3ccc(N4CCN(C)CC4)cc3OC)nc1-2` ?
803

So what's the measured Total Cell Count for this one? COc1cc2ncnc(Nc3ccc(F)c(Cl)c3)c2cc1NC(=O)/C=C/CN1CCCCC1 [DACOMITINIB ANHYDROUS]
800

Look up Total Cell Count: O=C1NC(=O)C(c2cnc3ccccn23)=C1c1cn2c3c(cc(F)cc13)CN(C(=O)N1CCCCC1)CC2 [LY-2090314]
187

Looking for the measured Total Cell Count of `Cc1cc(C)c(S(=O)(=O)N(Cc2ccc(-c3cccc(S(C)(=O)=O)c3)cc2)Cc2ccc(C(F)(F)F)o2)c(C)c1` , can you help?
225

Which measured Total Cell Count value corresponds to `CCOc1cc(C(=O)N2CCC(N3CCN(C)CC3)CC2)ccc1Nc1ncc2c(n1)N(C1CCCC1)c1ccccc1C(=O)N2C` ?
206

I have this molecule here, `Cc1ccc2nc(NCCN)c3ncc(C)n3c2c1.O=C(O)C(F)(F)F.O=C(O)C(F)(F)F` , and I need its recorded Total Cell Count.
482

Consider the molecule CCOC(=O)c1c(C)[nH]c2ccc3c(c12)CN1CCc2cc(OC)ccc2C1O3 (stereo unspecified) and give its measured Total Cell Count.
275

Please give the measured Total Cell Count for this molecule: C=CCn1c(=O)c2cnc(Nc3ccc(N4CCN(C)CC4)cc3)nc2n1-c1cccc(C(C)(C)O)n1 [ADAVOSERTIB]
609

Dear colleague, I am looking for the recorded Total Cell Count of the following molecule: O=C(Cc1ccc(-c2ccc(OCCN3CCOCC3)cc2)cn1)NCc1ccccc1 [TIRBANIBULIN]
168

Quick check: Total Cell Count of `CNc1cc(Oc2cc(C(=O)Nc3cc(N4CCN(C)CC4)cc(C(F)(F)F)c3)ccc2C)ncn1` ?
264

What Total Cell Count value was documented for this molecule, `NC(=O)c1cccc(-c2cc(Nc3ccc(OC(F)(F)F)cc3)ncn2)c1` ?
593

Form field: reported Total Cell Count of `CNC(=O)c1ccc(Nc2nc(OC3CCCC3)c3c(-c4ccc5nc(C)oc5c4)c[nH]c3n2)c(OC)c1`
481

So what's the measured Total Cell Count for this one? CN1CCC(=C2c3ccccc3CC(=O)c3sccc32)CC1.O=C(O)/C=C/C(=O)O [KETOTIFEN FUMARATE]
313

I am curious: what Total Cell Count value has been reported for Cn1nc(C(F)(F)F)cc1-c1cnc(N2CCc3cc(S(=O)(=O)Nc4c(F)cc(Cl)cc4F)cc(N4CCCC4=O)c32)nc1 [TP-020] ?
670

If you can, please state the reported Total Cell Count value of CN(C)C(=O)C(CCN1CCC(O)(c2ccc(Cl)cc2)CC1)(c1ccccc1)c1ccccc1.Cl [LOPERAMIDE HYDROCHLORIDE] .
297

----------
Assignment: determine reported Population Hoechst High Intensity Objects (%) for the given molecules.
system: Fibroblast; experiment: Multiplex assay against human fibroblast; format: toxicity, cell-based; conditions: 48 h, 10 µM, compound concentration 10 uM, replicate 1
Give the quantity in %, number only.

Which Population Hoechst High Intensity Objects (%) is reported for this molecule? `Cl.O=C(c1ccc(Nc2nccc(-c3cc4ccccc4s3)n2)cc1)N1CCC(N2CCCC2)CC1`
49

For the molecule shown here, Cc1cn(-c2cc(NC(=O)c3ccc(C)c(Nc4nccc(-c5cccnc5)n4)c3)cc(C(F)(F)F)c2)cn1 [NILOTINIB] , give the reported Population Hoechst High Intensity Objects (%).
61

Would you kindly share the measured Population Hoechst High Intensity Objects (%) for C=C1/C(=C\C=C2/CCC[C@]3(C)[C@@H]([C@H](C)/C=C/[C@H](C)C(C)C)CC[C@@H]23)C[C@@H](O)C[C@@H]1O [DOXERCALCIFEROL] ?
12

Entry under review: `CCc1cccc(CC)c1NC(=O)c1nn(C)c2c1CCc1cnc(Nc3ccc(C(=O)NC4CCN(C)CC4)cc3OC(F)(F)F)nc1-2` . Reported Population Hoechst High Intensity Objects (%)?
38

Using the record for `Cc1cc(C)c(S(=O)(=O)N(Cc2ccc(-c3cccc(S(C)(=O)=O)c3)cc2)Cc2ccc(C(F)(F)F)o2)c(C)c1` , report its Population Hoechst High Intensity Objects (%).
40

Give the measured Population Hoechst High Intensity Objects (%) of `O=C(Nc1ccc(-c2ccnc(Nc3ccc(N4CCOCC4)cc3)n2)cc1)[C@@H]1CCCN1` .
22

Recorded Population Hoechst High Intensity Objects (%) of CCOC(=O)c1c(C)[nH]c2ccc3c(c12)CN1CCc2cc(OC)ccc2C1O3 (stereo unspecified) , please.
28

Given `CNc1cc(Oc2cc(C(=O)Nc3cc(N4CCN(C)CC4)cc(C(F)(F)F)c3)ccc2C)ncn1` , state its recorded Population Hoechst High Intensity Objects (%).
30

Query: Population Hoechst High Intensity Objects (%); subject: `Cl.Oc1ccc2c3c1O[C@H]1c4[nH]c5c(c4C[C@@]4(O)[C@@H](C2)N(CC2CC2)CC[C@]314)C[C@@]1(O)[C@H]2Cc3ccc(O)c4c3[C@@]1(CCN2CC1CC1)[C@H]5O4`
18

Which Population Hoechst High Intensity Objects (%) reading was recorded for the molecule `O=C1N/C(=N/c2ccccc2F)S/C1=C\c1ccc(C(=O)O)cc1` ?
56

Quick check: Population Hoechst High Intensity Objects (%) of CN1CCC(=C2c3ccccc3CC(=O)c3sccc32)CC1.O=C(O)/C=C/C(=O)O [KETOTIFEN FUMARATE] ?
31

----------
Record form. Attribute: Population Normal (%). Fill in for each entry.
test system: U2OS; experiment: Multiplex assay against U2OS; format: toxicity, cell-based; details: human, 24 h, 1 µM, compound concentration 1 uM, replicate 1

For the molecule `Cl.O=C(c1ccc(Nc2nccc(-c3cc4ccccc4s3)n2)cc1)N1CCC(N2CCCC2)CC1` , what Population Normal (%) is on record?
96%

What value of Population Normal (%) has been reported for the following molecule? `COc1ccc(-c2ccc3c(N4CCOCC4)nc(N4C[C@@H](C)O[C@@H](C)C4)nc3n2)cc1CO`
99%

Look up Population Normal (%): `COc1cccc2cc(-c3nc([C@H]4CC[C@H](C(=O)O)CC4)n4ncnc(N)c34)[nH]c12`
96%

Consider the molecule shown here: `CCCS(=O)(=O)c1nc(NC2CC2)cc(-c2ccc3c(ccn3C3CC(C)(C)NC(C)(C)C3)c2)n1` What is its recorded Population Normal (%)?
89%

----------
Give Population Fragmented Nuclei (%) for every item shown.
system: HEK-293T; experiment: Multiplex assay against HEK293T; type: toxicity, cell-based; details: human, 48 h, 10 µM, compound concentration 10 uM, replicate 2
Response body: numeric value in %, unit text excluded.

Form field: reported Population Fragmented Nuclei (%) of `CCN1CCN(Cc2ccc(Nc3ncc(F)c(-c4cc(F)c5nc(C)n(C(C)C)c5c4)n3)nc2)CC1.CS(=O)(=O)O`
10

Which measured Population Fragmented Nuclei (%) value corresponds to `O=C(Nc1ccc(-c2ccnc(Nc3ccc(N4CCOCC4)cc3)n2)cc1)[C@@H]1CCCN1` ?
10

// Population Fragmented Nuclei (%) lookup, key: `CNc1cc(Oc2cc(C(=O)Nc3cc(N4CCN(C)CC4)cc(C(F)(F)F)c3)ccc2C)ncn1`
7

What does the data say about its Population Fragmented Nuclei (%)? Entry: O=C1NC(=O)C(c2cnc3ccccn23)=C1c1cn2c3c(cc(F)cc13)CN(C(=O)N1CCCCC1)CC2 [LY-2090314]
7

What measured Population Fragmented Nuclei (%) goes with CN1CCN(C(=O)C(C)(C)c2ccc(C(=O)Nc3cn4cc(-c5ccncc5)ccc4n3)cc2)CC1 [T3-CLK] ?
7

Which Population Fragmented Nuclei (%) value is on record for Cc1cn(-c2cc(NC(=O)c3ccc(C)c(Nc4nccc(-c5cccnc5)n4)c3)cc(C(F)(F)F)c2)cn1 [NILOTINIB] ?
7

Give its Population Fragmented Nuclei (%) value. Item: O=C(Cc1ccc(-c2ccc(OCCN3CCOCC3)cc2)cn1)NCc1ccccc1 [TIRBANIBULIN]
7

Tell me the measured Population Fragmented Nuclei (%) of `Cc1ccc(C(=O)Nc2cccc(C(F)(F)F)c2)cc1Nc1nc(-c2cccnc2)nc2c1cnn2C` , please.
8

Param item = `O=C(Nc1ccc(Cl)cc1)Nc1cccc(-c2cccc(N3CCCC3)n2)c1` ; retrieve measured Population Fragmented Nuclei (%).
22

Can you share its Population Fragmented Nuclei (%)? I mean this molecule: `COc1cc(N2CCN(C)CC2)ccc1Nc1ncc2c(n1)N(C)c1ccccc1C(=O)N2C`
11

Look up Population Fragmented Nuclei (%): CCOc1cc2ncc(C#N)c(Nc3ccc(OCc4ccccn4)c(Cl)c3)c2cc1NC(=O)/C=C/CN(C)C [NERATINIB]
32

Which Population Fragmented Nuclei (%) value is on record for `Cl.O=C(c1ccc(Nc2nccc(-c3cc4ccccc4s3)n2)cc1)N1CCC(N2CCCC2)CC1` ?
19

Need Population Fragmented Nuclei (%) of `O=C1N/C(=N/c2ccccc2F)S/C1=C\c1ccc(C(=O)O)cc1` , thanks.
6

Please report the recorded Population Fragmented Nuclei (%) for CN1CCC(=C2c3ccccc3CC(=O)c3sccc32)CC1.O=C(O)/C=C/C(=O)O [KETOTIFEN FUMARATE] .
2

Data request, read-out Population Fragmented Nuclei (%), for `CCOc1cc(C(=O)N2CCC(N3CCN(C)CC3)CC2)ccc1Nc1ncc2c(n1)N(C1CCCC1)c1ccccc1C(=O)N2C`
13

Find the recorded Population Fragmented Nuclei (%) belonging to `S=C(NCCCc1c[nH]cn1)NCCCN(Cc1ccc(Cl)c(Cl)c1)c1ccc(Br)cn1` and report it.
15
